The reported numbers originate from patent US20230272056A1.

Biological target: T1, human LAP-TGFB1 Fc fusion (human)
T1 construct: also called human LAP-TGFβ1-Fc; human LAP-TGFβ-Fc isoform 1
T1 sequence (chain, as listed by the source limits assumed): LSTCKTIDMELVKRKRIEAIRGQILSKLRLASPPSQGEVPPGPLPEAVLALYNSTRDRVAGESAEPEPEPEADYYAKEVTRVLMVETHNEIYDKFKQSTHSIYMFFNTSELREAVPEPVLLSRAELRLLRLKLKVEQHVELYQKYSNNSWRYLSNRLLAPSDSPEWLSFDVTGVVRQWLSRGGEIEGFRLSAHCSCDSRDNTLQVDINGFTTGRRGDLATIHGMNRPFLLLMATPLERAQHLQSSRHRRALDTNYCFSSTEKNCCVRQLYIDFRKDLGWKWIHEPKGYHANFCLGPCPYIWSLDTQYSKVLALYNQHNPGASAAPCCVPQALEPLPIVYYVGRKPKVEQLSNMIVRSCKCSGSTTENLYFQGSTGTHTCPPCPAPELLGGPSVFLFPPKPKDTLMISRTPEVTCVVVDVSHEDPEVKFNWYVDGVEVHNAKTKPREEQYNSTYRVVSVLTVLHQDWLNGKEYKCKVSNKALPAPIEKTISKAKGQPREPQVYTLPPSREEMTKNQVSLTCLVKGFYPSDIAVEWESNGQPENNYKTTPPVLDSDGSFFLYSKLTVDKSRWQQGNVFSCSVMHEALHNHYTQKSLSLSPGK
Assay: SPR pH 7.4, antigen captured on Fab 54BLH
pKd: −log10 of the molar value.

binder | pKd
64BLH (Fab, V domains shown, also called 16BLM Fab) VH: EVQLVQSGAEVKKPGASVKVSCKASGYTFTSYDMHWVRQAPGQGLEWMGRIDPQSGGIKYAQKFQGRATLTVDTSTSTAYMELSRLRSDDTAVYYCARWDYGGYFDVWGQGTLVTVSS VL: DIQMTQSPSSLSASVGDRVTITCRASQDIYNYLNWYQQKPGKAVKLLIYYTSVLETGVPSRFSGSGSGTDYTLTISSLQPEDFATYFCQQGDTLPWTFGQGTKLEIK | 10.21
55BLH (Fab, V domains shown, also called 07BLM Fab) VH: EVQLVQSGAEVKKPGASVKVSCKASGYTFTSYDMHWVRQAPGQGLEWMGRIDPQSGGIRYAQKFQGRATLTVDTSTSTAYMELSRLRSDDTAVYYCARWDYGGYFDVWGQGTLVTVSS VL: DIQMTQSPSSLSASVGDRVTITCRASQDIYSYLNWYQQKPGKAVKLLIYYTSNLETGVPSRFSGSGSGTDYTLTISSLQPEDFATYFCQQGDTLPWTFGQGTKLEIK | 9.90
19BLM (antibody, human IgG1, kappa, L234A L235A, V domains shown, IgG1 L234A L235A D265S/kappa; also called 82BLH; 55BMD) VH: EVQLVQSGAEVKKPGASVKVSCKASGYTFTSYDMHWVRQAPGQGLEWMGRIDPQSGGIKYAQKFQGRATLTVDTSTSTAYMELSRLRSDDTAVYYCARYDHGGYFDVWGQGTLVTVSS VL: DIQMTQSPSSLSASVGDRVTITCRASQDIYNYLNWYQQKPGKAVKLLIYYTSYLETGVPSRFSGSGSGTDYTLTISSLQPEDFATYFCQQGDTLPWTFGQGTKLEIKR | 9.75
